Would you mind telling me the reported viability index of each entry?
- System: Plasmodium falciparum NF54 gametocytes
- test details: viability index relative to DMSO control (fraction); higher = less gametocyte killing
- condition info: gametocyte stage: Stage III viability index; 12.5 µM; incubation time: 72 h
Answer as a number with no unit attached.

Requested field: viability index. Item: COc1cc(OC)cc(N2C(=O)N(Cc3ccc(C(C)(C)C)cc3)c3ccccc3S2(=O)=O)c1
1

# repeat for COc1ccc(Nc2cc(C)nc(NCc3ccccc3)n2)cc1
0.487

# repeat for CCOc1ccc(C2N(C)c3ccccc3N2C)cc1
1.08

# repeat for COc1ccccc1CNC(=O)CCn1c(=O)[nH]c2ccccc2c1=O
0.912

# repeat for CCOC(=O)c1cn(CC)c2cc(N(C)CCc3ccc(OC)c(OC)c3)c(F)cc2c1=O
0.912

----------
- Tested on: Plasmodium falciparum NF54 gametocytes
- test details: viability index relative to DMSO control (fraction); higher = less gametocyte killing
- condition info: gametocyte stage: Stage I viability index; 12.5 µM; incubation time: 72 h
Would you mind telling me the reported viability index of each entry?

Could you share what viability index was measured for CC(C)OCc1cc(CN2CCN(c3cccc(Cl)c3)CC2)c(O)c2ncccc12 , tested on Plasmodium falciparum NF54 gametocytes?
0.00331

# repeat for CC(NCc1ccccc1)c1cc(Cl)ccc1O (stereo unspecified)
0.0221

# repeat for O=C(Nc1nc(-c2ccccn2)cs1)c1ccccc1Br
0.0807

# repeat for COc1ccc2nc(N)nc(C)c2c1
0.353

# repeat for COc1ccc(C(C)=O)cc1N1C(=O)C2C(C1=O)C1(c3ccccc3)C(=O)C2(c2ccccc2)C(c2ccc(C)cc2)=C1c1ccc(C)cc1 (stereo unspecified)
1.04

# repeat for CC(C)(C)c1ccc2c(c1)CN(Cc1ccc(Cl)cc1)CO2
0.12

# repeat for CCOc1ccc(CCNC(=O)c2cccs2)cc1OCC
1.14

# repeat for CCOc1ccccc1CNC(=O)C1c2ccccc2C(=O)N(CC(C)C)C1c1cccs1 (stereo unspecified)
0.579

# repeat for c1ccc(-c2ccc(-c3nc4ccccc4[nH]3)cc2)cc1
0.527

# repeat for COc1ccc(C(=O)Nc2ccc3nc(N4CCCCC4)cc(C)c3c2)cc1OC
0.275

# repeat for COc1ccc(OC)c(C2C3=C(CC(C)(C)CC3=O)N(c3ccc(Cl)c(Cl)c3)C3=C2C(=O)CC(C)(C)C3)c1
0.713

----------
- Test system: Plasmodium falciparum NF54 gametocytes
- test details: viability index relative to DMSO control (fraction); higher = less gametocyte killing
- condition info: gametocyte stage: Stage II viability index; 12.5 µM; incubation time: 72 h
observation type: viability index
Answer as a number with no unit attached.

Could you share what viability index was measured for COc1ccc(Nc2nc(NN=Cc3ccc(O)cc3)nc(Nc3ccc([N+](=O)[O-])cc3)n2)cc1 , tested on Plasmodium falciparum NF54 gametocytes?
0.05

# repeat for Oc1c(CN2CCN(c3ccccc3F)CC2)cc(Br)c2cccnc12
0.0566

# repeat for FC(F)(F)c1cccc(CNC2CCN(CCc3ccccc3)CC2)c1
0.464

# repeat for CCc1ccc(CNCC(O)c2ccccc2)cc1 (stereo not given)
0.177

# repeat for COc1cc(C(=O)Nc2ccc(-c3nc4ccccc4[nH]3)cc2)cc(OC)c1OC
0.595

# repeat for CCOc1cc2c(cc1OCC)C(c1cc(Cl)c(O)c(OCC)c1)NCC2 (stereo not given)
0.163

# repeat for C=C(C)CCC(C)N1CCC(N2CCC(C(=O)NCCc3ccccc3)CC2)CC1 (stereo not given)
0.665

# repeat for CCOc1ccccc1CNC(=O)C1c2ccccc2C(=O)N(CC(C)C)C1c1cccs1 (stereo not given)
0.549

# repeat for Cc1ccnc(NC(c2cccc(OCc3ccccc3)c2)c2ccc3cccnc3c2O)c1 (stereo not given)
0.015

# repeat for Cc1ccc(C2CC(C(F)(F)F)n3nc(C(=O)N4CCN(C(c5ccccc5)c5ccccc5)CC4)cc3N2)cc1 (stereo not given)
0.645

# repeat for CCN(CC)CCCNc1nc(-c2ccc(Cl)cc2)nc2ccccc12
0.751

# repeat for COc1ccc2nc(C)cc(Nc3cccc(O)c3)c2c1
0.564

# repeat for Cc1ccc(-c2cc3c(SCC(=O)Nc4cc(C(F)(F)F)ccc4Cl)nccn3n2)cc1
0.896

# repeat for COc1ccc2nc(C)cc(Nc3ccc(Cl)cc3)c2c1
0.525

# repeat for CCCCOc1ccc(C(=O)Nc2cc(C)on2)cc1
0.815

# repeat for O=c1nc(C=Cc2ccc(Br)cc2)oc2ccccc12
0.88

# repeat for O=C1c2ccccc2-c2nnc(-c3ccc(Br)cc3)cc21
0.875

# repeat for O=C(Nc1cccc(C(F)(F)F)c1)c1cc(Cl)ccc1O
0.00676

# repeat for Cc1ccc(-c2cc3c(nn2)-c2ccccc2C3=O)cc1
0.871

# repeat for CC(C)(C)CC(C)(C)NCC(O)COc1ccc2c(c1)CCC2 (stereo not given)
0.273

# repeat for COc1cccc(C=Cc2nc(=O)c3ccccc3o2)c1OC
0.717

# repeat for Oc1ccc(Cl)cc1CNc1nc2ccccc2[nH]1
0.545

# repeat for CCC(O)c1ccc(Br)cc1NC(=O)c1cccc(Cl)c1 (stereo not given)
0.196

# repeat for O=C(Nc1ccc(N2CCN(Cc3ccccc3)CC2)cc1)c1cccs1
0.866

# repeat for Cc1sc2ncnc(Sc3nc4ccccc4[nH]3)c2c1C
0.0135

# repeat for Cc1cccc(Nc2nc(N)c3ccccc3n2)c1
0.635

# repeat for CN(C)c1ccc(N=Cc2ccc(N3CCOCC3)cc2)cc1
0.834

# repeat for COc1nc(Nc2ccc(C(C)C)cc2)nc(OC)n1
0.871

# repeat for CCOc1c(Br)cc(C2C(C(=O)OC)=CN(C)C=C2C(=O)OC)cc1OC
0.243

# repeat for COc1ccccc1N=C1C(=O)c2ccccc2C(O)=C1N1CCCCC1
0.0203

----------
- Tested on: Plasmodium falciparum NF54 gametocytes
- test details: viability index relative to DMSO control (fraction); higher = less gametocyte killing
- condition info: gametocyte stage: Stage IV viability index; 12.5 µM; incubation time: 72 h
observation type: viability index
Answer as a number with no unit attached.

Requested field: viability index. Item: OC(CNC1CCCCC1)Cn1c2ccccc2c2ccccc21 (stereo not drawn)
0.277

# repeat for CCOc1c(Cl)cc(CNCC(O)c2ccccc2)cc1OC (stereo not drawn)
0.918

# repeat for COc1ccccc1CNC(=O)CCn1c(=O)[nH]c2ccccc2c1=O
0.951

# repeat for Nc1nc(Nc2cccc(F)c2)nc2ccccc12
0.82

# repeat for CCOc1ccc(C2N(C)c3ccccc3N2C)cc1
0.985

# repeat for COc1ccc(C(=O)NC(c2ccccc2Cl)c2cc(Cl)c3cccnc3c2O)cc1 (stereo not drawn)
0.241

# repeat for CC(C)(C)c1ccc2c(c1)CN(Cc1ccc(Cl)cc1)CO2
0.633

# repeat for CN1c2ccccc2N(C)C1c1ccc2c(c1)OCO2
0.964

# repeat for c1ccc(CNc2nc(Nc3ccccc3)nc3ccccc23)cc1
0.563

# repeat for c1ccc2c(NCCc3c[nH]c4ccccc34)c3ccccc3nc2c1
0.687

# repeat for Cc1ccc(N2C(=O)C3C(C2=O)C2(c4ccccc4)C(=O)C3(c3ccccc3)C(c3ccccc3)=C2c2ccccc2)cc1 (stereo not drawn)
1.03

# repeat for Cc1cccc(Nc2nc(N)c3ccccc3n2)c1
0.854

# repeat for CCOC(=O)c1cnc2c(CC)cccc2c1O
0.835

----------
Would you mind telling me the reported viability index of each entry?
- System: Plasmodium falciparum NF54 gametocytes
- test details: viability index relative to DMSO control (fraction); higher = less gametocyte killing
- condition info: gametocyte stage: Stage II viability index; 12.5 µM; incubation time: 72 h
Answer as a number with no unit attached.

Requested field: viability index. Item: O=C(CSc1nccn2nc(-c3ccccc3)cc12)Nc1cc(C(F)(F)F)ccc1Cl
0.896

# repeat for CC1(c2ccccc2)Nc2ccccc2-c2nc3ccccc3n21 (stereo not drawn)
0.109

# repeat for CC1CN(C(=O)c2sc3ccccc3c2Cl)CC(C)O1 (stereo not drawn)
0.756

# repeat for FC(F)(F)c1cccc(Nc2nc(-c3ccccc3)nc3ncccc23)c1
1.08

# repeat for COc1ccc(C)c2sc(N(Cc3cccnc3)C(=O)c3ccc(C#N)cc3)nc12
0.704

# repeat for CCOc1cc(Cl)c(C(C)NC(=O)c2ccccc2)cc1OCC (stereo not drawn)
0.781

# repeat for Cn1c(C(=O)c2cccc3ccccc23)nc2ccccc21
0.95

# repeat for COc1ccc2c(=O)cc(C(Cl)(Cl)Cl)oc2c1
0.146

# repeat for CCOc1ccc(C=Cc2nc(=O)c3ccccc3o2)cc1
0.836

# repeat for Cc1cc(NCCN2CCCCC2)c2ccc3ccccc3c2n1
0.404

# repeat for CCCCN(CCCC)S(=O)(=O)c1ccc(NC(=O)c2ccco2)cc1
0.963

# repeat for Cc1ccc(Cn2c(N3CCC(C(=O)NCc4cccs4)CC3)nc3ccccc32)cc1
0.289

# repeat for CCOc1ccc(Nc2ccnc3cc(Cl)ccc23)cc1
0.411
